Conditions: 298.15 K; 101 kPa; Liquid; Capillary tube (Ostwald / Ubbelohde) method
Each entry below carries its reported log10 viscosity.
Hey, these are logged values: log10 of viscosity, mPa·s being the unit before logging.

Here's what some known entries look like.
{"compound": "CCC(C)=O", "quantity.kind": "log10 viscosity", "meas.value": -0.41}
{"compound": "CCOC(C)=O [ethyl acetate]", "quantity.kind": "log10 viscosity", "meas.value": -0.36}
{"compound": "CCCCCCn1cc[n+](C)c1.F[B-](F)(F)F [1-hexyl-3-methylimidazolium tetrafluoroborate]", "quantity.kind": "log10 viscosity", "meas.value": 2.29}
{"compound": "CCCCN", "quantity.kind": "log10 viscosity", "meas.value": -0.32}

Now for another entry.
Q. # return recorded log10 viscosity for entry C1CCOC1 [tetrahydrofuran]
A. -0.32
